Assay: folding stability dG unfold from trypsin proteolysis; higher = more stable
What folding stability dG unfold was measured for each of the following?
Give bare numbers, in kcal/mol.

Recorded results for 6 sequences are shown here.
Problem: Please report the recorded folding stability dG unfold for SAGGNWRPVERPIPIEPGMPPEEFIDEIADELPPGWRIDKPEPHPDNNYFKITVYDPNDGNQVEILFSAGGS [r16_250_TrROS] .
Result: 0.363

Problem: Entry under review: SAGGSAEIEITVTVPPEMTEEEIKEQLEAELQRLTGEKVEIVDIRVEEVNGELTVTVKIKIEPAPPSAGGSA [r15_105_TrROS_Hall] . Reported folding stability dG unfold?
Result: 3.04

Problem: # input sequence: SAGGSAGGSKNGEPPPVPTITMRFKDPDKIRKLNKKAGLPIEHDPGNGYITFPYRQIDKILKASAGGSAGGS [r12_325_TrROS] ; wanted: its folding stability dG unfold
Result: 3.98

Problem: Query: folding stability dG unfold; subject: SAPPLPPETITLTLTIDGYEITVTLTRLPDGTVKLTVTVTLPDGTTVTITMYFDAKTNKWYITKIEITPPSA [r9_795_TrROS_Hall]
Result: 4.04

Problem: I have this sequence here, SAGGSAGGSAGGSMPTYRITVEVDGKKYTITVREGMSPEEIAKRLKELYPNLTVKIEPVSAGGSAGGSAGGS [r4_155_TrROS_Hall] , and I need its recorded folding stability dG unfold.
Result: 3.75

Problem: Fill in the blank: the reported folding stability dG unfold of SAGGKKNKPKPKVKVKILSVTANPDPNTPGLLSVSVPVLIESDDEEFALALAKELAKLPNVKVVVLGGSAGG [r13_606_TrMRF] is ____.
Result: 1.34

Turning now to a further record.
Problem: Param item = SALDVPPDARVYVFRLRYPVPPGVSAADVAARVRAELSERFGPDVEIVVTVTPDPETGEVLVEAVVVEPVSA [r9_657_TrMRF] ; retrieve measured folding stability dG unfold.
Result: 3.57

###

Experiment: folding stability dG unfold from chymotrypsin proteolysis; higher = more stable
Endpoint: folding stability dG unfold (kcal/mol)
One number for each entry, in kcal/mol.

Use these answered entries as a reference point.
Problem: Report folding stability dG unfold for SGMTIKILEVDFNPLGEEDEKATITLKAEIGGEEVELKIEVYRRPDGSAIAKITLILPGSGEPFEITADISA [r9_241_TrMRF] please.
Result: 4.16

Problem: Any idea what folding stability dG unfold was measured for SAGGMEEVIKELAKSLGVTKILPESEAKKLSSSVPNALAAVKLPDGSYVLIKRNSDGSVSSIKYKLESAGGS [r16_686_JUSTAS] ?
Result: 1.83

Problem: Fill blank: measured folding stability dG unfold of the sequence SAGDIEIEVEELGEGYKKITIRIKVDSIEEAIKEVEEIVRDFFSEEAEIVEIKIDPEKGIVEAVVIVPESAG [r5_810_TrMRF] is ____.
Result: 3.39

Others:
Problem: Name the reported folding stability dG unfold value associated with the sequence SAGGSAGGSAGGPPDLVKVRFIKVSVKLKEVKENPNGEKEMKLEMKIEEVEVTVRKDDLSAGGSAGGSAGGS [r10_524_TrROS_Hall]
Result: 2.71

###

Assay: folding stability dG unfold from chymotrypsin proteolysis; higher = more stable
Please use Y whenever folding stability dG unfold is not below 0.3 kcal/mol, and N whenever it is.

Some solved cases for reference:
Problem: hey, is folding stability dG unfold for this one >= 0.3 kcal/mol? SAGGSAGGSADIKVEVEYDKSNGYMWVKIKLPGKDIPIWIPPNDSPEQMEEKAIDFAKYLLKSAGGSAGGSA [r18_266_TrROS]
Result: Y

Problem: Form field: folding stability dG unfold at least 0.3 kcal/mol? Entry: SAGGAPVPVSVTVEIFKRPDGYIIKVNIPSGETKTFSSLEELEKFLKENPSLKITKRTTVPIEKYYESSAGG [r13_730_JUSTAS]
Result: Y

Problem: Hi, just wondering whether SAGMKIEIEAEYDPESGTVTLHIKEEPEPGEPVEVKFPIKFLKDKVEIEAETEEPLDPEEILKKIKEELSAG [r5_478_TrMRF] shows folding stability dG unfold of 0.3 kcal/mol or higher.
Result: Y

Problem: Hi team, for SAGGSAGGSAGGYLEAPIVIKIEFQIYDPDDGDPIATYEHTIMIPIEIELPPPPDPDNDSAGGSAGGSAGGS [r10_50_TrROS] , is the recorded folding stability dG unfold at or above 0.3 kcal/mol?
Result: Y

Problem: Can SAGGSAGGSAGGELKLLSVEEGPNETYTVSSSDGKLTVYTKPPDGSWKSTSLPLEPELLSAGGSAGGSAGGS [r10_99_JUSTAS] be said to have folding stability dG unfold at or above 0.3 kcal/mol?
Result: Y

Okay, next one:
Problem: For this sequence, is measured folding stability dG unfold 0.3 kcal/mol or higher? SAGGAPIPTVSTRTTPLPGGSSRTTTTTTYTFPETGTVYTATTTTTASPGGSPTTTATTTTTALAAASAGGS [r16_113_JUSTAS]
Result: N

###

Assay: folding stability dG unfold from chymotrypsin proteolysis; higher = more stable
Endpoint: folding stability dG unfold (kcal/mol)
Numbers only, in kcal/mol.

Problem: Which folding stability dG unfold reading was recorded for the sequence SAGGSAGGSAGGSFELVGLVSEFEDENGIPVRVFKAKNPLLGYEFLVVVLPNGEVFFLPSAGGSAGGSAGGS [r10_1123_TrMRF] ?
Result: 3.12

Please report folding stability dG unfold for every entry that follows.
1. SAGGSAGGSAPPNDWYVGIMEITININIDADQLPPPLREKFEKNGIKEIRITFVSVFPPDDFSAGGSAGGSA [r18_127_TrROS]
2. SAGGSASVKVEITEIKSSNPESSSNKIDIPVKVYDPETGKEVLSVEEIAKKIEEENPGKPVGYVPESAGGSA [r2_27_JUSTAS]
3. SAGGSAPPEWRTIMIPMKPDDVDNAIEELRNELPPGRNINIHLQDPEPGRYFMITIRGNKIEIHFMSAGGSA [r15_257_TrROS]
4. SAGIVIPINNPEQAEELAKEFAPEYGYEVEIERVPPGEPLEELPPNDIIVHDPDSGWFYKIKIKRPDEKSAG [r5_173_TrROS]
5. SAGGSAGGSAGGMYRIKVTTKDGRERVIEVKPGEEITLEELRKAGLSEEEIERVEIEEVSAGGSAGGSAGGS [r10_565_TrROS_Hall]
6. SMKIKIYVAPPGYVVVRITGPNGFYIPIPAKDPDEAKAKLEELINNLQERNGHKPDIDVVPFPPGQEIGDSA [r9_786_TrROS]
7. SAGGSAFKLTFKNMKIESKMPNPDGQKMIRIEWPDGLSIMIHPPNAIWIMPKDDPEMPPGDMVPIDSAGGSA [r15_692_TrROS]

Result:
1. 3.56
2. 0.0963
3. 2.12
4. 0.134
5. 1.85
6. 2.22
7. 0.782

Would you be so kind as to report folding stability dG unfold for each listed record?
1. SAGGSMPLTLEIKAPASTPASEIVATLKKYGPVTVTLGDGRTYNIPRDKPPNLKGLPLAPDAVLTLVVSAGG [r13_399_JUSTAS]
2. SAGGRAVLLATFTTPDGSLVLVYEDPATGRVLVVSFDPSTGRVSVLRLRRVPNTGDLFIEDRATFPLSSAGG [r19_249_TrMRF]
3. SAGKSIKILITTEKEEEAKKLAEEIKKELPKLGYKVEVYIMPKEEFEKFLKEFVVPEPDGKLVKVDLSSAGG [r19_187_TrMRF]
4. SAGGSANPNGKPWVEVEVSFMIPIDDEDIADALGGPPKPGDWLMITVKIRVYPDGNVEIDINLHPMSAGGSA [r15_91_TrROS]
5. SAGGSAGGSAGVITIPLDDINDLPPGFKVKPNNNSMMIEDGDNPIHIPPGEPVQIEPPDESAGGSAGGSAGG [r17_91_TrROS]
6. SAGPKVKLIKAEFFPDGRLVVYAEVESSNGEPAFAVGVFDPRNPNKAHVKVYNPSTGKVSEFEVTVTPGSAG [r5_345_TrMRF]

Result:
-0.742
4.36
2.09
3.88
0.346
3.24

###

Experiment: folding stability dG unfold from chymotrypsin proteolysis; higher = more stable
Would you mind classing the entries by folding stability dG unfold? Ranges: lower level (below 0.9 kcal/mol), middle level (0.9 kcal/mol to below 2 kcal/mol), upper level (2 kcal/mol or more)

Previously resolved entries follow.
Problem: Would you mind sorting SAGGSAGGSAGGSKIEVYKEPNKITIVIHPGNKPLVFTATEPIPIETLIKKAREAFPDASAGGSAGGSAGGS [r4_191_TrMRF] into the appropriate category?
Result: lower level

Problem: Which folding stability dG unfold band matches SAGGSAGGSPETLTITVKEKPVRIEINGKVIEVKPGDTITIPKELANNIRIEVNEDGSITITPSAGGSAGGS [r20_150_TrROS_Hall] ?
Result: middle level

Problem: Band assignment needed for SMEFTIEVYDPVTPKVETFPVKAPKEKVIEKIREFQEKGGKVVLSGLPEEKVKEIVEEAGVDVEIVPVEKSA [r9_1207_TrMRF] please.
Result: lower level

Problem: Would you mind sorting SMVKTIEIEIVLPPGEWVKLTEEDIKEKIEKELPGWKILSIDITKEERLVPGGTEPLVVIKAKILVEKKESA [r9_1189_JUSTAS] into the appropriate category?
Result: upper level

---
Problem: Field: class (folding stability dG unfold) — entry: SAGGGKKYRVTLELTLPDGTKLTLEFEFEVVPPAVPKPVVTTSLDDIAEFDPETGTAIDKKNKKPIPLPSAG [r5_807_TrMRF]
Result: upper level

Problem: Class label required: SAGGSAGGSAGGSYTVSEIPEEGLVLKTLPNGVVTRYKVSPDGSLEEIATFEPGNGVLIKSAGGSAGGSAGG [r7_659_JUSTAS]
Result: middle level

Problem: Kindly identify the class of SAGGSAKEALVKAVEELFKKLFPDEPIEVLKVDPEKGRITIKVNSDEARKALEKALKELGIEVDLDSAGGSA [r15_196_TrMRF] .
Result: upper level

Problem: Which bin should I file SAGGSAGGSAGFKLPPGQEVVFQVSIKLPDGPTQTLEDLENMPPENIDFLEIEISWVPVDSAGGSAGGSAGG [r11_899_TrROS] under?
Result: middle level

Hey, just so you know, these numbers are from the supplement of paper PMC12764529.
